Assay: yeast display, Sf9 membrane polyspecificity reagent, FACS + sequencing; frameworks hold sequencing errors
value type: polyreactivity (PSR sort gate)

[
  {
    "construct sequence": "QVQLVESGGGLVQAGGSLRLSCAASGRTFTYNVMGWYRQAPGKERELVAAITSGGTNYADSVKGRFTISRDNAKNTVYLQMNSLKPEDTAVYYCATDYYDDVTIGYDYWGQGTQVTVSS",
    "value type": "polyreactivity (PSR sort gate)",
    "value reported": "low polyreactivity"
  },
  {
    "construct sequence": "QVQLVESGGGLVQAGGSLRLSSAASGGTFDPYAMGWYRQAPGKERELVAAISDGRRTYYADSVKGRFTISRDNAKNSVYLLMNSRNTEETAVYYFDKCRLTSRICYYWWSAYHPSDYWGQGTQVSVSS",
    "value type": "polyreactivity (PSR sort gate)",
    "value reported": "low polyreactivity"
  },
  {
    "construct sequence": "QVQLVESGGGLVQAGGSLRLSCGASGLTCREYAMGWYRQAPGKERELVAAITSTGGNTYYADSVKGRFPISRDNAKNTVYLQMNSLTPEDTAVYYCAARTTRRVTSGKFDYWGQGTQVTVSS",
    "value type": "polyreactivity (PSR sort gate)",
    "value reported": "high polyreactivity"
  },
  {
    "construct sequence": "QVQLVESGGGLVQAGGSLRLSCAASGLIFYSYAMGWYRQAPGKERELVAAITGGGSTNYADSVKGRFTISRDNAKNTVYLPMHSLKPEDTAVYYCAAAFTLRKYDYWGQGTQVTVSS",
    "value type": "polyreactivity (PSR sort gate)",
    "value reported": "low polyreactivity"
  },
  {
    "construct sequence": "QVQLVESGGGLVQAGGTLRLSCAASGLTFYRYAMGWYRQAPGKERELVATIRSGDGTYYADSVKGRFTISRDNAKNTVYLQMNSLKPEDTAVYYCAAKKVYRVYGRYEYWGQGTQVTVSS",
    "value type": "polyreactivity (PSR sort gate)",
    "value reported": "high polyreactivity"
  }
]

For the sequence `HVQLVESGGGLVQAGGCLRLSCAASGIIFLYNAMGWYRQAPGKERELVATITWSGGSTYYADSVKGRFTISRDNAKITVYLQMKSLKPEDTAVYYCAADYYYGYEFGYWGQGTQVTVSS` , what polyreactivity (PSR sort gate) is on record? low polyreactivity

For the sequence `QVQLVESGGGLVQAGGSLRLSCAASGNIIRSYMGWYRQAPGKERELVASISRRGGSTYYADSVKGRFTISRDNAKNTVYLHMNSLKPEDTAVYYCARRWSWVNGVFGYYWGQGTQVSVSS` , what polyreactivity (PSR sort gate) is on record? high polyreactivity

For the sequence `QVQLVESGGGLVQAGGSLRLSCAASGRIFDYYDMGWYRQAPVKERELVAAITSSGTSTYYADSVKGRFTISRDNAKNTVYLQMNSLKPEDTAVYYCNARSIRPWGENGFWGQGTQVTVSS` , what polyreactivity (PSR sort gate) is on record? high polyreactivity

For the sequence `QVQLVESGGGLVQAGGSLRLSCAASGSTFQYYAMGWYRQAPGKERELVAAITHSGTRTYYADSVKGRFTISRDNAKNTVYLQMNSLKPEDTAVYYCAARGYGKYDYWGQGTQVTVSS` , what polyreactivity (PSR sort gate) is on record? high polyreactivity

For the sequence `QVQLVESGGGLVQEGGSLRLSCAASGSIYGWDAMGWYRQAPGQEREYVAAIDYSDGGRTYSADSVKGRFTISRDPAKNTVYLQMNSLKPADTAVYYCAAGYVYPHYFIDEYWGQGTQVTVSS` , what polyreactivity (PSR sort gate) is on record? high polyreactivity

For the sequence `QVQLVESGGGLVQAGGSLRLSSAASGSTIRVYAMGWYRQAPGKERELVATISWGGGRTYYADSVKGRFTISLDNAKNTVYLQMNSLKQEDTSVYYCAADQRWTTDQPTAGDYWGQGTQVTVSS` , what polyreactivity (PSR sort gate) is on record? low polyreactivity

# credit: the nanobody polyreactivity screen of Harvey et al. (2022)
